# target: CIB1 and αIIb interaction (GST-CIB1 : F-αIIb peptide) (Homo sapiens, UniProt Q99828)
# Construct: made in house; host or cells: BL-21 plus RIL cells (E. coli)
# assay notes: FP assay, 384-well format (screen)
# Type: binding
# assay context: F-αIIb peptide
measurement kind: 384-well SCREEN Efficacy (%)
Provide the reading as a plain figure in %.

# compound, measurement kind, numeric result
rows = [
    ("Br.CCCCCCCCCCCCCCCC[N+](C)(C)C.[Br-]", "384-well SCREEN Efficacy (%)", 57),
    ("CC[C@@H](CO)NC(=O)[C@@H]1C=C2c3cccc4[nH]cc(c34)C[C@H]2N(C)C1.O=C(O)/C=C\\C(=O)O", "384-well SCREEN Efficacy (%)", 80),
    ("CCCCCc1c2c(cc(O)c1C(=O)O)OC(=O)c1c(cc(OC)cc1C(=O)CCCC)O2.O=C(O)C(F)(F)F", "384-well SCREEN Efficacy (%)", 38),
    ("COc1ccccc1S(=O)(=O)Nc1cnccc1C(=O)Nc1nc(-c2ccccc2)cs1.O=C(O)C(F)(F)F", "384-well SCREEN Efficacy (%)", 37),
]

Given Cc1nc(N=Nc2cc(S(=O)(=O)O)c3cc([N+](=O)[O-])cc(S(=O)(=O)O)c3c2)c(COP(=O)(O)O)c(C=O)c1O (stereo in doubt) , state its recorded 384-well SCREEN Efficacy (%). 70

// same read-out, input: Cc1cc2c(C(C)C)c(O)c(O)c(C=O)c2c(O)c1-c1c(C)cc2c(C(C)C)c(O)c(O)c(C=O)c2c1O 90

// same read-out, input: NS(=O)(=O)c1ccc(Cc2c(-c3cccc(-c4ccccc4F)c3)nn(-c3nc(C(=O)O)cs3)c2O)cc1.O=C(O)C(F)(F)F 57

* * *

Listed below: COUNTERSCREEN Efficacy (%) values for each entry.
# target: GST-CIB1 : F-scrambled peptide (Homo sapiens)
# Construct: made in house; host or cells: BL-21 plus RIL cells (E. coli)
# Sequence (Q99828 whole entry): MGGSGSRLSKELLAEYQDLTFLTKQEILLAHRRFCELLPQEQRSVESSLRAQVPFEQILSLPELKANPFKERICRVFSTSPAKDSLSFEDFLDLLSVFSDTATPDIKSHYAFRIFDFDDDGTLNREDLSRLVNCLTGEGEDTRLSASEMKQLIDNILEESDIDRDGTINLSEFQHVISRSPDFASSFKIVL
# assay notes: FP scrambled-peptide counter screen, 1536-well format
# Assay type: binding
# assay context: scrambled-peptide counterscreen
Provide the reading as a plain figure in %.

# chem smiles, target, numeric result
records = [
    ("O=C(Nc1nc(-c2ccccc2)cs1)c1ccncc1NS(=O)(=O)c1ccc(Cl)cc1.O=C(O)C(F)(F)F", "GST-CIB1 : F-scrambled peptide (Homo sapiens)", 13),
    ("CCCCCCCCOc1ccccc1C(=O)Nc1ccc(C(=O)OCC[N+](C)(CC)CC)cc1.[Br-]", "GST-CIB1 : F-scrambled peptide (Homo sapiens)", 0),
    ("CC[C@@H](CO)NC(=O)[C@@H]1C=C2c3cccc4[nH]cc(c34)C[C@H]2N(C)C1.O=C(O)/C=C\\C(=O)O", "GST-CIB1 : F-scrambled peptide (Homo sapiens)", -16),
]

Next molecule, COUNTERSCREEN Efficacy (%) to be filled in.
I'm curious: which COUNTERSCREEN Efficacy (%) was measured for N#Cc1cnc(NS(=O)(=O)c2ccc(NC(=O)Cc3ccc(F)c(Cl)c3)cc2)s1.O=C(O)C(F)(F)F tested on GST-CIB1 : F-scrambled peptide (Homo sapiens)? 24

* * *

Listed below: log10 of IC50 values for each entry.
# target: CIB1 and αIIb interaction (CIB1-GST : F-αIIb peptide) (Homo sapiens, UniProt Q99828)
# Construct: made in house; host or cells: BL-21 plus RIL cells (E. coli)
# assay notes: FP assay, 1536-well qHTS format (primary and confirmatory screen)
# Assay type: binding
# assay context: confirmatory screen; read-out: CONFIRMATORY SCREEN IC50
The common logarithm of IC50 in µM is what is listed.

Given COC(=O)[C@]12CCC(C)(C)C[C@H]1[C@H]1C(=O)C=C3[C@@]4(C)C=C(C#N)C(=O)C(C)(C)[C@@H]4CC[C@@]3(C)[C@]1(C)CC2 , state its recorded log10 of IC50. 0.85

// same read-out, input: CN(C)C(=S)SSC(=S)N(C)C 0.85

// same read-out, input: COc1ccc(C(=O)Nc2nc(-c3ccccc3)cs2)c(NS(=O)(=O)c2ccc(C)cc2)c1.O=C(O)C(F)(F)F 1.05
